Cited source for all entries: paper PMC10192561

Test: Pharmacokinetics of flumatinib and M1 in SD rats with or without isavuconazole
Type: in vivo, Sprague-Dawley male rats
Settings: male, Sprague-Dawley, rat, plasma, po, 60 mg/kg, group B: 20 mg/kg isavuconazole and 60 mg/kg flumatinib dosed orally
Measured Cmax by item

[
  {
    "structure smiles": "Cc1ncc(NC(=O)c2ccc(CN3CCNCC3)c(C(F)(F)F)c2)cc1Nc1nccc(-c2cccnc2)n1",
    "Cmax / ng/mL": 31.9
  },
  {
    "structure smiles": "Cc1ncc(NC(=O)c2ccc(CN3CCN(C)CC3)c(C(F)(F)F)c2)cc1Nc1nccc(-c2cccnc2)n1",
    "Cmax / ng/mL": 481
  }
]

###

Measured MRT inf by item
Assay: Pharmacokinetics of flumatinib and M1 in SD rats with or without isavuconazole
Format: in vivo, Sprague-Dawley male rats
Conditions: male, Sprague-Dawley, rat, plasma, po, 60 mg/kg, group A: 60 mg/kg flumatinib dosed orally alone, read-out: MRT0→∞

[
  {
    "structure smiles": "Cc1ncc(NC(=O)c2ccc(CN3CCN(C)CC3)c(C(F)(F)F)c2)cc1Nc1nccc(-c2cccnc2)n1",
    "MRT inf (h)": 7.66
  },
  {
    "structure smiles": "Cc1ncc(NC(=O)c2ccc(CN3CCNCC3)c(C(F)(F)F)c2)cc1Nc1nccc(-c2cccnc2)n1",
    "MRT inf (h)": 8.86
  }
]

###

Target: flumatinib metabolism in HLM (Homo sapiens, UniProt P08684)
Sequence (P08684 2-503): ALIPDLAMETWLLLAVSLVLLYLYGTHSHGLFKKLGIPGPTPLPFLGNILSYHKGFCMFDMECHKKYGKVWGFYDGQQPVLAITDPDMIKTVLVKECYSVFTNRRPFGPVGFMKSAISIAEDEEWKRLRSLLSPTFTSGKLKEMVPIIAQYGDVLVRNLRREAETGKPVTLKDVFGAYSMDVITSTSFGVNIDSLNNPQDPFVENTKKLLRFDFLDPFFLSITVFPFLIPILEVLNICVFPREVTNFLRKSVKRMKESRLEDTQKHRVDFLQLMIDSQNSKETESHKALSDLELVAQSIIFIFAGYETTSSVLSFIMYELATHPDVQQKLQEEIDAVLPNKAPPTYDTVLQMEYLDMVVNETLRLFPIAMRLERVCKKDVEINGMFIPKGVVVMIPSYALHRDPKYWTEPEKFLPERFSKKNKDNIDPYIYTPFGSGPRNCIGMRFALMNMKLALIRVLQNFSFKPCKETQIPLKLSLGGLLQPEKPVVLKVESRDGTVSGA
Test: Inhibition of flumatinib metabolism in human liver microsome incubation (UPLC-MS/MS)
Settings: human liver microsomes, probe flumatinib ([…] in HLM, at Km)
measured metric: IC50 at 40 min (nM)

[
  {
    "structure smiles": "CC[C@@H]([C@H](C)O)n1ncn(-c2ccc(N3CCN(c4ccc(OC[C@@H]5CO[C@@](Cn6cncn6)(c6ccc(F)cc6F)C5)cc4)CC3)cc2)c1=O",
    "numeric result": 1720
  }
]

###

Experiment: Pharmacokinetics of flumatinib and M1 in SD rats with or without isavuconazole
Format: in vivo, Sprague-Dawley male rats
Details: male, Sprague-Dawley, rat, plasma, po, 60 mg/kg, group B: 20 mg/kg isavuconazole and 60 mg/kg flumatinib dosed orally, read-out: MRT0→t

[
  {
    "structure smiles": "Cc1ncc(NC(=O)c2ccc(CN3CCNCC3)c(C(F)(F)F)c2)cc1Nc1nccc(-c2cccnc2)n1",
    "MRT last": "8.2 h"
  },
  {
    "structure smiles": "Cc1ncc(NC(=O)c2ccc(CN3CCN(C)CC3)c(C(F)(F)F)c2)cc1Nc1nccc(-c2cccnc2)n1",
    "MRT last": "6.87 h"
  }
]
